These entries and their values trace back to a melting point compilation (Tetko et al.).

Catalogue of melting point readings, one per entry.

Examples from the recorded data:
[[record]]
querysmiles = "Cc1cc(C(=O)O)cc(Cl)c1N"
valueobserved = "274 to 277 °C"

[[record]]
querysmiles = "Cc1nn(-c2ccccc2)c2oc3sccc3c(=S)c12"
valueobserved = "194 to 196 °C"

[[record]]
querysmiles = "Clc1c(Cl)c(Cl)c2ccccc2c1Cl"
valueobserved = "198 °C"

[[record]]
querysmiles = "O=C(O)c1cccnc1Cl"
valueobserved = "176 to 178 °C"

[[record]]
querysmiles = "O=[N+]([O-])c1ccccc1OCCN1CCOCC1"
valueobserved = "44 to 45 °C"

[[record]]
querysmiles = "CN1CCN(c2cccc(C(=O)O)c2)CC1"
valueobserved = "187 to 190 °C"

[[record]]
querysmiles = "NC(=NO)c1ccc(OC(F)(F)F)cc1"
valueobserved = "113 to 115 °C"

[[record]]
querysmiles = "NCc1ccc(-c2ccccc2)nc1"
valueobserved = "38 to 40 °C"


Looking for the measured melting point of CC(C)(C)OC(=O)N1Cc2ccccc2C[C@H]1C(=O)O , can you help?
125 to 126 °C

Queued: CN(C)c1ccc(C2CC(=O)CC(=O)C2)cc1
201 to 204 °C

Please do the same for O=[N+]([O-])c1ccccc1N1CSc2nnc(-c3cccnc3)n2C1 as well.
159 °C

Next molecule: O=c1cc(NC2CCCCC2)c2ccccc2o1
194 °C

Same read-out for NS(=O)(=O)c1ccc(Cl)c(S(N)(=O)=O)c1 ?
207 °C

O=C(Nc1ccccn1)c1ccccc1Cl , same question.
137 to 139 °C

# repeat for Cc1cc(OC(=O)N(C)C)n(-c2ccccc2)n1
50 °C

Please answer likewise for CCNc1cc2oc(=O)cc(C(F)(F)F)c2cc1C
184 °C

* * *

resultType: melting point (°C)

Solved entries (count: 10):
[[record]]
molecule = "CCCCCCCCC=CCCCCCCCC(=O)OCC(COC(=O)CCCCCCCC=CCCCCCCCC)OC(=O)CCCCCCCC=CCCCCCCCC (centres undefined)"
valueobserved = -32

[[record]]
molecule = "COC(=O)c1c2c(c(C)c3c1CC3=O)C(=O)C2"
valueobserved = 168

[[record]]
molecule = "O=C(O)C12CC3CC(CC(O)(C3)C1)C2"
valueobserved = 205

[[record]]
molecule = "CCC(=O)OC(Cc1ccccc1)(c1ccccc1)C(C)CN(C)C (centres undefined)"
valueobserved = 75

[[record]]
molecule = "O=C(O)C(CO)c1ccccc1 (centres undefined)"
valueobserved = 118

[[record]]
molecule = "Cc1cc(C)c2c(=O)n3c(cc2c1)CCCC3"
valueobserved = 62

[[record]]
molecule = "O=C(c1cccs1)c1noc(-c2ccc([N+](=O)[O-])cc2)c1S(=O)(=O)c1ccccc1"
valueobserved = 139

[[record]]
molecule = "O=Cc1c2ccccc2cc2ccccc12"
valueobserved = 105

[[record]]
molecule = "CCC(C)C1(CC)C(=O)NC(=S)NC1=O (centres undefined)"
valueobserved = 169

[[record]]
molecule = "Nc1ccc2ccc3ccccc3c2c1"
valueobserved = 143


P: O=C(O)CCN1C(=O)C=CC1=O
Q: CC(O)C(C)C(C)(C)C (centres undefined)
R: Nc1cccc2nsnc12
S: Cc1cc(O)c(C)cc1N
Task field, ranking: reported melting point, descending order. Answer format: the labels, ordered as requested.
S, P, R, Q
